Recorded melting point for the following compounds

Previously resolved entries follow.
>>> value_reported("CCOC(Cn1c2c(c3ccccc31)CCN1C(=O)c3ccccc3N(C)C21)OCC (stereo not shown)")
"117 to 119 °C"
>>> value_reported("CCOC(=O)CCCn1c2c(c3ccccc31)CCN1C(=O)c3ccccc3N(C)C21 (stereo not shown) [2-23, N13-(3-(Ethoxycarbonyl)propyl)evodiamine]")
"265 to 268 °C"
>>> value_reported("CN1c2ccccc2C(=O)N2CCc3c(n(CCOCCOCCCl)c4ccccc34)C21 (stereo not shown)")
"126 to 128 °C"

Could you now consider this next compound?
(Q) So what does the record say about melting point for CCC(=O)OCCn1c2c(c3ccccc31)CCN1C(=O)c3ccccc3N(C)C21 (stereo not shown) ?
(A) 205 to 206 °C

---

assay-notes: physchem
experimental-conditions: simulated gastric fluid
experimental-readout: solubility (µg/mL)
Answer format: numeric, µg/mL implied, no suffix.

Would you please look over these solved cases?
>>> value_reported("CN1c2ccccc2C(=O)N2CCc3c(n(CCCCCBr)c4ccccc34)C21 (centres unmarked) [2-26, N13-(5-Bromopentyl)evodiamine]")
67.8
>>> value_reported("COCCOCCn1c2c(c3ccccc31)CCN1C(=O)c3ccccc3N(C)C21 (centres unmarked) [2-17, N13-(2-(2-Methoxyethoxy)ethyl)evodiamine]")
60

(Q) Which solubility value is on record for CCCOC(=O)Cn1c2c(c3ccccc31)CCN1C(=O)c3ccccc3N(C)C21 (centres unmarked) [2-27, N13-(Propoxycarbonylmethyl)evodiamine] ?
(A) 72.9

(Q) Bench note: what solubility did CN1c2ccccc2C(=O)N2CCc3c(n(CC4CO4)c4ccccc34)C21 (centres unmarked) [2-24, N13-((Oxiran-2-yl)methyl)evodiamine] show?
(A) 20

(Q) Quick one: solubility of CN1c2ccccc2C(=O)N2CCc3c(n(CC=O)c4ccccc34)C21 (centres unmarked) [compound 6, 2-(Evodiamin-N13-yl)acetaldehyde] ?
(A) 60

---

experimental-readout: melting point

Solved cases (5 shown):
>>> value_reported("CN1c2ccccc2C(=O)N2CCc3c(n(CCCCCn4c5c(c6ccccc64)CCN4C(=O)c6ccccc6N(C)C54)c4ccccc34)C21 (stereo not drawn) [3-1, 1,5-Bis-(evodiamin-N13-yl)pentane]")
"217 to 219 °C"
>>> value_reported("CN1c2ccccc2C(=O)N2CCc3c(n(CCCCCl)c4ccccc34)C21 (stereo not drawn)")
"127 to 129 °C"
>>> value_reported("CON=CCn1c2c(c3ccccc31)CCN1C(=O)c3ccccc3N(C)C21 (stereo not drawn)")
"216 °C (dec.)"
>>> value_reported("CC(C)Cn1c2c(c3ccccc31)CCN1C(=O)c3ccccc3N(C)C21 (stereo not drawn)")
"154 to 156 °C"
>>> value_reported("CN1c2ccccc2C(=O)N2CCc3c(n(CCCCCCn4c5c(c6ccccc64)CCN4C(=O)c6ccccc6N(C)C54)c4ccccc34)C21 (stereo not drawn) [3-2, N1,6-Bis-(evodiamin-N13-yl)hexane]")
"131 to 133 °C"

(Q) Return reported melting point; argument: CCOC(=O)CCCCn1c2c(c3ccccc31)CCN1C(=O)c3ccccc3N(C)C21 (stereo not drawn) [2-28, N13-(4-(Ethoxycarbonyl)butyl)evodiamine]
(A) 251 to 253 °C

---

experimental-readout: melting point

Answered examples (3):
>>> value_reported("COCCn1c2c(c3ccccc31)CCN1C(=O)c3ccccc3N(C)C21 (stereo not shown) [2-14, N13-(2-Methoxyethyl)evodiamine]")
"166 to 168 °C"
>>> value_reported("CC(=O)OCCn1c2c(c3ccccc31)CCN1C(=O)c3ccccc3N(C)C21 (stereo not shown) [2-19, N13-(2-Acetoxyethyl)evodiamine]")
"211 to 213 °C"
>>> value_reported("CN1c2ccccc2C(=O)N2CCc3c(n(CCO)c4ccccc34)C21 (stereo not shown) [4-1, N13-(2-Hyroxyethyl)evodiamine]")
"166 to 168 °C"

Let's switch to this compound now.
(Q) Which melting point reading was recorded for the compound COCCOCCn1c2c(c3ccccc31)CCN1C(=O)c3ccccc3N(C)C21 (stereo not shown) [2-17, N13-(2-(2-Methoxyethoxy)ethyl)evodiamine] ?
(A) 116 to 118 °C
